Reported Ki values for a set of compounds
- system tested: rat 5-HT4 receptor S10-87 (CG-7) (Rattus norvegicus, UniProt Q62758)
- assay info: [3H]5-HT radioligand binding (saturation and displacement), membranes of Cos-7 cells transiently expressing rat S10-87 (CG-7)
- run parameters: Affinity constants (Ki), CG-7, 10 nM [3H]5-HT; mean ± SEM; >1000 estimated from one point displacement at 1 uM
The figure you give is taken to be in µM; do not add the unit.

Worked examples follow.
compound	observed measurement
COc1ccc2[nH]cc(CCN)c2c1	0.0275
CN1[C@@H]2CC[C@H]1C[C@@H](OC(=O)c1c[nH]c3ccccc13)C2	0.115

input: Request the reported Ki associated with COc1cc(N)c(Cl)cc1C(=O)NC1CCN(CCCOc2ccc(F)cc2)CC1OC (stereo not shown) [Cisapride, cisapride]
output: 0.0109

---

- system tested: rat 5-HT4 receptor S10-87 (CG-7) (Rattus norvegicus, UniProt Q62758)
- assay info: [3H]GR113808 binding (saturation and displacement), COS-7 membranes, rat clone CG-7
- Set-up: two individual full length cDNA clones, S10-87 and S10-95, were isolated; expressed in transfected cells; host or cells: COS-7 (transient, DEAE-dextran)
- run parameters: read-out: KL (affinity for the low affinity state); CG-7, [3H]GR113808
experimental endpoint: Ki (µM)
Field format: number, assumed µM, no unit text.

input: // query Ki value for entry COc1ccc2[nH]cc(CCN)c2c1
output: 0.658

---

- system tested: rat 5-HT4 receptor S10-87 (CG-7) (Rattus norvegicus)
- assay info: [3H]GR113808 binding (saturation and displacement), COS-7 membranes, rat clone CG-7
- Set-up: two individual full length cDNA clones, S10-87 and S10-95, were isolated; expressed in transfected cells; host or cells: COS-7 (transient, DEAE-dextran)
- run parameters: CG-7, [3H]GR113808; read-out: KH (affinity for the high affinity state)
experimental endpoint: pKi
Quick note: pKi values are minus log10 of concentrations in mol/L.

input: May I ask what pKi has been recorded for COc1cc(N)c(Cl)cc1C(=O)NC1CN2CCC1CC2 (stereo not shown) [Zacopride, zacopride] ?
output: 6.37

---

Reported EC50 values are given for each entry in this list.
- system tested: rat 5-HT4 (CG-7) receptor (Rattus norvegicus)
- Construct: two individual full length cDNA clones, S10-87 and S10-95, were isolated; expressed in transfected cells; host or cells: COS-7 (transient, DEAE-dextran)
- Sequence (Q62758 1-387 isoform Q62758-2): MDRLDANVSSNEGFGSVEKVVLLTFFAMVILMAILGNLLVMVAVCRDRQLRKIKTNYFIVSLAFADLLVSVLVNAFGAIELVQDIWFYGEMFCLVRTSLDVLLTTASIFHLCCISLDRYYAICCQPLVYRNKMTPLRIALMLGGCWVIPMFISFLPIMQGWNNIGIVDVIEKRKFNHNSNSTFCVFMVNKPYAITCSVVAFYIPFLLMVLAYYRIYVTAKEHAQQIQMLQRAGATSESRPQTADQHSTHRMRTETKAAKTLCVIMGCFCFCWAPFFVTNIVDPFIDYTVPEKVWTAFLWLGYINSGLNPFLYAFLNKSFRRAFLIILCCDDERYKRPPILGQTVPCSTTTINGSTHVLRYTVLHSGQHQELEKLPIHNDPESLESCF
- assay info: cAMP formation in intact Cos-7 cells transiently expressing CG-7
- Type: cell-based
Dear colleague, please return just the value in µM, with no unit written.

COc1ccc2[nH]cc(CCN)c2c1 0.021

Now let's try a different one.
input: Sample NCCc1c[nH]c2ccc(C(N)=O)cc12 — what was its EC50?
output: 5.57

---

- system tested: rat 5-HT4 receptor S10-95 (CG-8) (Rattus norvegicus)
- Sequence (Q62758 whole entry): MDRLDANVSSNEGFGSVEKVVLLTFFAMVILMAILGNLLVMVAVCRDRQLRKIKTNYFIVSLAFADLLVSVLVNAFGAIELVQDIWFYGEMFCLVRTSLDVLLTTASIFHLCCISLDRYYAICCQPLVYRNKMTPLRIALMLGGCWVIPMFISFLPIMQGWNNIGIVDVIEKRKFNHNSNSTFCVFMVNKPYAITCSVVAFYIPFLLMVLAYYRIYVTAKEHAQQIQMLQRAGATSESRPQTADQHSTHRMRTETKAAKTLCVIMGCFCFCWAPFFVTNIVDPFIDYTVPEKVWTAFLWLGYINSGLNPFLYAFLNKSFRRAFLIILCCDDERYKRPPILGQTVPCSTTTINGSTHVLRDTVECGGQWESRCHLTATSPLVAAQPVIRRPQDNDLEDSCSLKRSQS
experimental endpoint: pKi
Worth noting: pKi values are minus log10 of concentrations stated in mol/L.

input: Any idea what pKi came out for COc1cc(N)c(Cl)cc1C(=O)NC1CN2CCC1CC2 (stereo not shown) [Zacopride, zacopride] on rat 5-HT4 receptor S10-95 (CG-8) (Rattus norvegicus)?
output: 6.87

---

- system tested: rat 5-HT4 receptor S10-87 (CG-7) (Rattus norvegicus, UniProt Q62758)
- assay info: [3H]GR113808 binding (saturation and displacement), COS-7 membranes, rat clone CG-7
- Set-up: two individual full length cDNA clones, S10-87 and S10-95, were isolated; expressed in transfected cells; host or cells: COS-7 (transient, DEAE-dextran)
- run parameters: CG-7, [3H]GR113808; read-out: KL (affinity for the low affinity state)
experimental endpoint: Ki (µM)
Report only the number, with the unit µM understood.

input: Field request: Ki | item: COc1cc(N)c(Cl)cc1C(=O)NC1CN2CCC1CC2 (stereo not shown) [Zacopride, zacopride]
output: 2.76

---

Recorded Ki for the following compounds
- system tested: rat 5-HT4 receptor S10-87 (CG-7) (Rattus norvegicus, UniProt Q62758)
- assay info: [3H]GR113808 binding (saturation and displacement), COS-7 membranes, rat clone CG-7
- Set-up: two individual full length cDNA clones, S10-87 and S10-95, were isolated; expressed in transfected cells; host or cells: COS-7 (transient, DEAE-dextran)
- run parameters: CG-7, 0.2-0.4 nM [3H]GR113808, single experiment; read-out: Affinity estimate K1
Quick reminder: number only, in nM, skip the unit.

compound	Ki [nM]
CC(N)Cc1c[nH]c2ccc(O)cc12 (stereo not shown)	2260

input: Given the entry COc1cc(N)c(Cl)cc1C(=O)NC1CN2CCC1CC2 (stereo not shown) [Zacopride, zacopride] , report its measured Ki.
output: 729
